# Tested on: HepG2 cells (hepatocellular carcinoma)
# assay-method-text: General cytotoxicity on HepG2 cells (CC50; therapeutic index CC50 HepG2/IC50 Mino)
# Format: cell-based
# stated-conditions: Table 10; therapeutic index
As shown below, each of these molecules has a reported CC50 (HepG2)/IC50 (Mino) value.

>>> experimental_value("C=CC(=O)N1CC[C@@H](n2nc(-c3ccc(Oc4ccncc4)cc3)c3cncc(Cl)c32)C1")
2.57

response.value for CC#CC(=O)N1CCC[C@@H](n2nc(-c3ccc(C(=O)Nc4ccccn4)cc3)c3cncc(Cl)c32)C1 (field: CC50 (HepG2)/IC50 (Mino)) = 1.85

====

# assay-method-text: Stability in human blood plasma
# stated-conditions: 10 μM in pooled human blood plasma, incubated 4 hours at 37° C.
As shown below, each of these compounds has a reported Amount of substance in the sample, % (stability in human blood plasma) value.
Write down the numeric answer in % and omit the unit.

Observe how each entry below is paired with its result.
>>> experimental_value("C=CC(=O)N1CCC[C@@H](n2nc(-c3ccc(Oc4cccnc4C#N)cc3)c3c(N)ncc(Cl)c32)C1 [BCD-BTK-236]")
96.8
>>> experimental_value("C=CC(=O)N1CCC[C@@H](n2nc(-c3ccc(C(=O)Nc4cc(C(F)(F)CCC)ccn4)cc3)c3cncc(Cl)c32)C1 [BCD-BTK -252]")
85.2
>>> experimental_value("C=CC(=O)N1CCC[C@@H](n2nc(-c3ccc(C(=O)Nc4ccccn4)cc3)c3c(N)nccc32)C1 [BCD-BTK-242]")
100.0

response.value for CC#CC(=O)N1CCC[C@@H](Cn2nc(-c3ccc(C(=O)Nc4ccccn4)cc3)c3cncc(Cl)c32)C1 [BCD-BTK-278] (field: Amount of substance in the sample, % (stability in human blood plasma)) = 96.2

response.value for C=CC(=O)N1CCC[C@H](Cn2nc(-c3ccc(C(=O)Nc4ccccn4)cc3)c3cncc(Cl)c32)C1 [BCD-BTK-290] (field: Amount of substance in the sample, % (stability in human blood plasma)) = 100.0

====

# assay-method-text: Chemical stability in artificial gastric fluid (SGF without enzymes)
# stated-conditions: 10 μM in SGF without enzymes, pH=1.4, 37° C.
quantity: Amount of substance in the sample in % (chemical stability) (%)
Write down the numeric answer in % and omit the unit.

Observe how each entry below is paired with its result.
>>> experimental_value("C=CC(=O)N1CCC[C@@H](n2nc(-c3cnc(C(=O)Nc4cccc(F)n4)nc3)c3cncc(Cl)c32)C1 [BCD-BTK-277]")
99.8
>>> experimental_value("C=CC(=O)N1CCC[C@@H](n2nc(-c3ccc(C(=O)Nc4cc(C(F)(F)CC)ccn4)cc3)c3cncc(C#N)c32)C1 [BCD-BTK-219]")
96.7
>>> experimental_value("C=CC(=O)N1CCC[C@@H](n2nc(-c3ccc(Oc4ccncc4C#N)cc3)c3cncc(Cl)c32)C1 [BCD-BTK -202]")
95.5

response.value for C=CC(=O)N1CCC[C@@H](n2nc(-c3ccc(C(=O)Nc4cc(C(F)(F)CCC)ccn4)cc3)c3cncc(F)c32)C1 [BCD-BTK -247] (field: Amount of substance in the sample in % (chemical stability)) = 100

response.value for C=CC(=O)N1CCC[C@@H](n2nc(-c3ccc(C(=O)Nc4ncccc4F)cc3)c3cncc(C#N)c32)C1 [BCD-BTK-235] (field: Amount of substance in the sample in % (chemical stability)) = 100

response.value for C=CC(=O)N1CCC[C@@H](n2nc(-c3ccc(Oc4ccncc4C(N)=O)cc3)c3cncc(Cl)c32)C1 [BCD-BTK -203] (field: Amount of substance in the sample in % (chemical stability)) = 100

response.value for C=CC(=O)N1CC(Cn2nc(-c3ccc(Oc4ccncc4)cc3)c3cncc(Cl)c32)C1 [BCD-BTK-264] (field: Amount of substance in the sample in % (chemical stability)) = 97.8

====

# System: Z-138 (mantle cell lymphoma)
# assay-method-text: Antiproliferative activity, Z-138 cells (Alamar Blue)
# Format: cell-based
# stated-conditions: Homo sapiens, Table 10, 72 h, average of several tests
As shown below, each of these compounds has a reported pIC50 value.
Hey, just a heads up that pIC50 is the negative log base 10 of the concentration in molar.

Observe how each entry below is paired with its result.
>>> experimental_value("C=CC(=O)N1CCC[C@@H](n2nc(-c3ccc(Oc4ccncc4C#N)cc3)c3c(N)ncc(Cl)c32)C1")
4.97
>>> experimental_value("C=CC(=O)N1CCC[C@@H](n2nc(-c3ccc(C(=O)Nc4ccccn4)cc3)c3c(N)ncc(Cl)c32)C1")
5.03
>>> experimental_value("C=CC(=O)N1CCC[C@@H](n2nc(-c3ccc(C(=O)Nc4ccccn4)cc3)c3cncc(Cl)c32)C1")
5.18
>>> experimental_value("C=CC(=O)N1CCC[C@@H](n2nc(-c3ccc(C(=O)Nc4ncccc4F)cc3)c3c(N)ncc(C#N)c32)C1")
4.45
>>> experimental_value("C=CC(=O)N1CCC[C@@H](n2nc(-c3ccc(-n4ccc(=O)cc4)cc3)c3c(N)ncc(Cl)c32)C1")
4.36

With those in mind, consider the next compound.
Here C=CC(=O)N1CCC[C@@H](n2nc(-c3ccc(Oc4ccncc4C#N)cc3)c3cncc(Cl)c32)C1 was tested on Z-138 (mantle cell lymphoma), and its pIC50 came to 4.90

====

# target-under-test: recombinant Btk kinase enzyme (Homo sapiens, UniProt Q06187)
# Construct: purchased SignalChem B10-10H
# Sequence (Q06187 whole entry): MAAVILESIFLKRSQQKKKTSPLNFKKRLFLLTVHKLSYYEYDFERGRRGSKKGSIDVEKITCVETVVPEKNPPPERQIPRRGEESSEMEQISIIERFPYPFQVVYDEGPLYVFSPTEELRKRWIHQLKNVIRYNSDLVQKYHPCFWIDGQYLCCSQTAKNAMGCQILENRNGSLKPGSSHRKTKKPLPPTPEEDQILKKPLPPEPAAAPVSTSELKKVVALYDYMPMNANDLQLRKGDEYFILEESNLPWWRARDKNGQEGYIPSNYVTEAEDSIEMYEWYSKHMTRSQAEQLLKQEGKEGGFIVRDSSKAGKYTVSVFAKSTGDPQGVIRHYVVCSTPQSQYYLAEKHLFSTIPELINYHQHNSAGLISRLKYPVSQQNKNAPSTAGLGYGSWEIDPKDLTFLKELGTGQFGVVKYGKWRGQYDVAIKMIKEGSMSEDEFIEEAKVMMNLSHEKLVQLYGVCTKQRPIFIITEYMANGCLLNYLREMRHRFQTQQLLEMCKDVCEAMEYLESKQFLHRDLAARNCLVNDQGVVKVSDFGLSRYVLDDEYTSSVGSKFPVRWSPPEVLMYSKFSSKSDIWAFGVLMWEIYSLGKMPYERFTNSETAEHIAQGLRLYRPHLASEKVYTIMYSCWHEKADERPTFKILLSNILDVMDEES
# assay-method-text: In vitro inhibition of Btk kinase activity (ADP-Glo)
# Assay type: biochemical
# stated-conditions: Table 8; ADP-Glo; read-out: IC50 kinase BTK
# Experimental: To assess Btk kinase activity described herein, SignalChem kinase system was used. Btk kinase activity was determined in the reaction between recombinant Btk kinase enzyme (SignalChem #B10-10H) and Poly (4:1 Glu, Tyr) peptide substrate in the presence of the inhibitor. Staurosporine (Abcam Biochemicals, ab146588) was used as a reference inhibitor and 0.1% DMSO in the reaction buffer—as a negative control. […]
quantity: pIC50
Hey, just a heads up that pIC50 is the negative log base 10 of the concentration in molar.

Observe how each entry below is paired with its result.
>>> experimental_value("C=CC(=O)N1CCC[C@@H](n2nc(-c3ccc(Oc4ccncc4)cc3)c3c(N)ncc(OC)c32)C1 [BCD-BTK-239]")
8.62
>>> experimental_value("C=CC(=O)N1CCC[C@@H](n2nc(-c3ccc(Oc4ccncc4C(N)=O)cc3)c3cncc(Cl)c32)C1 [BCD-BTK-203]")
5.96
>>> experimental_value("C=CC(=O)N1CCC[C@@H](n2nc(-c3ccc(C(=O)Nc4cc(C(F)(F)CC)ccn4)cc3)c3cncc(F)c32)C1 [BCD-BTK-214]")
7.46

response.value for C=CC(=O)N1CCC[C@@H](n2nc(-c3cnc(C(=O)Nc4cc(C(F)(F)CCC)ccn4)nc3)c3cncc(Cl)c32)C1 [BCD-BTK-292] (field: pIC50) = 8.13

response.value for C=CC(=O)N1CCC[C@@H](n2nc(-c3ccc(C(=O)Nc4cc(C(F)(F)CCC)ccn4)cc3)c3c(N)ncc(Cl)c32)C1 [BCD-BTK-254] (field: pIC50) = 7.95

response.value for C=CC(=O)N1CCC[C@@H](n2nc(-c3ccc(C(=O)Nc4cccc(F)n4)cc3)c3c(N)ncc(Cl)c32)C1 [BCD-BTK-250] (field: pIC50) = 7.82

response.value for C=CC(=O)N1CCC[C@@H](n2nc(-c3ccc(Oc4ccncc4)cc3)c3c(N)nccc32)C1 [BCD-BTK-241] (field: pIC50) = 8.00

response.value for C=CC(=O)N1CCC[C@@H](n2nc(-c3ccc(Oc4cccnc4C#N)cc3)c3cncc(F)c32)C1 [BCD-BTK-230] (field: pIC50) = 7.98

response.value for C=CC(=O)N1CCC[C@H](Cn2nc(-c3ccc(C(=O)Nc4ccccn4)cc3)c3cncc(Cl)c32)C1 [BCD-BTK-290] (field: pIC50) = 7.71

====

# System: HepG2 cells (hepatocellular carcinoma)
# assay-method-text: General cytotoxicity on HepG2 cells (CC50; therapeutic index CC50 HepG2/IC50 Mino)
# Assay type: cell-based
# stated-conditions: Table 10; therapeutic index
As shown below, each of these molecules has a reported CC50 (HepG2)/IC50 (Mino) value.

Observe how each entry below is paired with its result.
>>> experimental_value("C=CC(=O)N1CCC[C@@H](n2nc(-c3ccc(C(=O)Nc4ccccn4)cc3)c3c(N)ncc(Cl)c32)C1")
2.34
>>> experimental_value("C=CC(=O)N1CC[C@H](n2nc(-c3ccc(Oc4ccncc4)cc3)c3cncc(Cl)c32)C1")
3.33
>>> experimental_value("C=CC(=O)N1CCC[C@@H](n2nc(-c3ccc(C(=O)Nc4ccc(F)cn4)cc3)c3cncc(Cl)c32)C1")
8.01
>>> experimental_value("C=CC(=O)Oc1cnc2c(c(-c3ccc(-n4ccc(=O)cc4)cc3)nn2[C@@H]2CCCN(C(=O)C=C)C2)c1Cl")
">7.97"

response.value for C=CC(=O)N1CCC[C@@H](n2nc(-c3cnc(C(=O)Nc4ccccn4)nc3)c3cncc(Cl)c32)C1 (field: CC50 (HepG2)/IC50 (Mino)) = >2.75

response.value for C=CC(=O)Nc1cc2c(-c3ccc(-n4ccc(=O)cc4)cc3)nn([C@@H]3CCCN(C(=O)C=C)C3)c2nc1C (field: CC50 (HepG2)/IC50 (Mino)) = >3.76

response.value for C=CC(=O)N1CC[C@@H](Cn2nc(-c3ccc(C(=O)Nc4ccccn4)cc3)c3cncc(Cl)c32)C1 (field: CC50 (HepG2)/IC50 (Mino)) = >3.59
